Values were extracted from PubChem BioAssay (NCI).

Measured growth inhibition by item
Experiment: NCI Yeast Anticancer Drug Screen. Data for the mlh1 rad18 strain (AID 175)
Details: S. cerevisiae mlh1 rad18 strain growth inhibition; at 50.0 µM; hits give high values
Compounds without any hit were thinned out: in the full panel of roughly 79,000, 15% have a hit. Active and inactive are the calls of the source. Cut-off read from the data, not from the text of the source: active = growth inhibition above about 70%; inactive = the rest. Where a SMILES comes first, the peptide text is derived from it. The star is where a group is joined. Boc = CC(C)(C)OC(=O)*
Test Readout: growth inhibition

INSERT INTO assay_data (compound, reading) VALUES
  ('CCOc1ccc(NC(=O)C(=O)CC(=O)c2sc(NNC(C)=O)nc2C)cc1', '-8% (inactive)'),
  ('O=[N+]([O-])c1ccc(C2=NN(c3ccccc3)C(c3ccccc3)C2)cc1 (stereo not given)', '4% (inactive)'),
  ('[Cl][Cu][Cl].c1ccc2c(c1)Sc1ccccc1[N+]2=c1ccc2nc3ccccc3sc-2c1', '35% (inactive)'),
  ('Cc1ccc2c(c1)C(=O)/C(=N/Nc1ccc(Cl)cc1)CCO2', '4.65% (inactive)'),
  ('CSc1nc(N)c(N=Nc2ccc(S(=O)(=O)Nc3cc(C)nc(C)n3)cc2)c(=O)[nH]1', '-3.3% (inactive)'),
  ('Cc1cccc(C(=O)NCCN(C)C)c1[N+](=O)[O-]', '3.35% (inactive)'),
  ('O=C1NC(CO)C(=O)NC1CO (stereo not given)', '-4.8% (inactive)'),
  ('OC(C1=C/C(=C\c2ccncc2)c2ccccc21)c1ccncc1 (stereo not given)', '93% (active)'),
  ('O=C1NCC/C1=C\c1ccc(Cl)c(Cl)c1', '-13.5% (inactive)'),
  ('CC(O)CNC(=O)C(C)O (stereo not given)', '7.6% (inactive)'),
  ('COc1cc2c3c(c1)[nH]c(=S)n3C(=O)CS2', '-40.9% (inactive)'),
  ('Cc1cc(C)cc(N=Nc2c(N)nc(N)[nH]c2=O)c1', '-7.3% (inactive)'),
  ('O=c1c2c([nH]n1-c1ccccc1)-c1ccccc1CS2', '28.9% (inactive)'),
  ('O=C(n1[nH]c(=O)n(-c2ccc([N+](=O)[O-])cc2)c1=O)C(Cl)(Cl)Cl', '-28.9% (inactive)'),
  ('CCOC(=S)Sc1ccc2c(c1)-c1ccc(F)cc1C2=O', '-1.65% (inactive)'),
  ('CC(C)NCCC(O)c1cc2ccccc2o1 (stereo not given)', '5.15% (inactive)'),
  ('C=CCN1C(SC)=NC(=O)C1(c1ccccc1)c1ccccc1', '22.8% (inactive)'),
  ('Cc1ccccc1NC(=S)NC(=O)c1ccccc1', '48.2% (inactive)'),
  ('C[N+](C)(C)CC(=O)N/N=C/c1oc(-c2cccc([N+](=O)[O-])c2)c(-c2cccc([N+](=O)[O-])c2)c1[N+](=O)[O-]', '3.35% (inactive)'),
  ('CCCCCCCCCCCCCCCCCCCC/C=C/C1CC(=O)OC1=O (stereo not given)', '7.1% (inactive)'),
  ('CCOC(=O)C12CCCCC1=CC1(CC2)SCCS1 (stereo not given)', '-15.6% (inactive)'),
  ('Oc1c(CN2CCN(c3ccccc3)CC2)cc(Br)c2cccnc12', '39.6% (inactive)'),
  ('Cc1c([N+](=O)[O-])ccc2c(NCCCN(C)C)ccnc12', '-36.4% (inactive)'),
  ('CC(NC(=O)C(NC(=O)OC(C)(C)C)C(C)C)C(=O)N1CCCC1C(=O)O (stereo not drawn) (Boc-Val-Ala-Pro-OH; configuration not given here)', '-38.4% (inactive)'),
  ('[CH3][Sn]([CH3])([O]C(=O)c1ccc2c(c1)OCO2)[O]C(=O)c1ccc2c(c1)OCO2', '-9.9% (inactive)'),
  ('O=C1OC(Nc2ccccc2)C(Cl)=C1Cl (stereo not given)', '-0.15% (inactive)'),
  ('C=CCC1=C2CCCCC2CCC1=O (stereo not given)', '4.95% (inactive)'),
  ('O=C1OC(=O)C2C3CCC(O3)C12 (stereo not given)', '-5% (inactive)'),
  ('CCCCCCC1N(C(C#N)c2ccccc2)CCCN1C(C#N)c1ccccc1 (stereo not given)', '36.4% (inactive)'),
  ('COc1ccc(/C=C2\N=C(NN)N=C2Cl)cc1', '-13.3% (inactive)'),
  ('CCOC(=O)C(=[N+]=[N-])C(=O)CN1C(=O)C2CC(C)=C(C)CC2C1O (stereo not given)', '16.9% (inactive)'),
  ('O=S(=O)(O)c1ccc(N=Nc2c(O)cc(O)cc2O)cc1', '-18.4% (inactive)'),
  ('O=C1C(Br)=C(Oc2ccccc2)C(=O)C(Br)=C1Oc1ccccc1', '-8.45% (inactive)'),
  ('O=C(c1ccccc1)C(c1ccccc1)C1(O)C(=O)Nc2ccc(Br)cc21 (stereo not given)', '7.1% (inactive)'),
  ('O=C(C[n+]1ccccc1)N/N=C(/CCC(=O)N(Cc1ccccc1)Cc1ccccc1)CC(=O)c1ccccc1', '-21.8% (inactive)'),
  ('COc1cc(Br)c(C=Nc2cccc3cc(OC)c(OC)cc23)cc1OC', '-15.9% (inactive)'),
  ('Cc1nc2ccccc2nc1C', '4.85% (inactive)'),
  ('Cc1ccccc1C1OC(=O)c2ccc3ccccc3c21 (stereo not given)', '6.55% (inactive)'),
  ('CCOC(=O)CCC(=O)N(CC)CC', '-13% (inactive)'),
  ('CCCCCNC(=O)c1ccc([N+](=O)[O-])cc1', '13.9% (inactive)'),
  ('Cc1ccc(C(=O)Nc2ccc(CP(=O)(O)O)cc2CP(=O)(O)O)cc1N', '1.8% (inactive)'),
  ('CC(C)C(C)NC(=O)C(C)(C)C(C)(C)C (stereo not given)', '-5.55% (inactive)'),
  ('Cc1ccc(S(=O)(=O)N/N=C/c2cc(I)cc(I)c2O)cc1', '99.1% (active)'),
  ('O=C(O)c1ccc(Nc2nc3ccccc3nc2-c2cccs2)cc1', '-9.7% (inactive)'),
  ('CC(=O)[O-].O=S(=O)(Nc1ncccn1)c1ccc(N=Cc2ccccc2O)cc1.O=S(=O)(Nc1ncccn1)c1ccc(N=Cc2ccccc2O)cc1.[Cu+2]', '-1.35% (inactive)');
